This section presents compounds with their documented IC50 values.
Test system: PC-9
Test: Antitumor activity against human PC-9 cells assessed as inhibition of cell viability incubated for 72 hrs under normoxia condition by CCK8 assay
Type: functional, cell-based
Conditions: PC-9, 72 h

| COMPOUND | QUANTITY_UNIT | IC50 |
| --- | --- | --- |
| Cn1c(CN2C(=O)CCC(N3C(=O)c4cccc(OCCOCCOCCOCCC(=O)Nc5cc6c(Nc7ccc(F)c(Cl)c7)ncnc6cc5O[C@H]5CCOC5)c4C3=O)C2=O)cnc1[N+](=O)[O-] (stereo partly drawn) | nM | 1100 |
| O=C1CCC(N2C(=O)c3cccc(OCCOCCOCCOCCC(=O)Nc4cc5c(Nc6ccc(F)c(Cl)c6)ncnc5cc4O[C@H]4CCOC4)c3C2=O)C(=O)N1 (stereo partly drawn) | nM | 1300 |
| O=C(CCOCCOCCOCCOc1cccc2c1C(=O)N(C1CCC(=O)N(Cc3ccc([N+](=O)[O-])cc3)C1=O)C2=O)Nc1cc2c(Nc3ccc(F)c(Cl)c3)ncnc2cc1O[C@H]1CCOC1 (stereo partly drawn) | nM | 1920 |
